# measured.on: Feline_OSMR_hlgG1_Fc (feline)
# Sequence (chain, as listed by the source limits assumed, form in doubt): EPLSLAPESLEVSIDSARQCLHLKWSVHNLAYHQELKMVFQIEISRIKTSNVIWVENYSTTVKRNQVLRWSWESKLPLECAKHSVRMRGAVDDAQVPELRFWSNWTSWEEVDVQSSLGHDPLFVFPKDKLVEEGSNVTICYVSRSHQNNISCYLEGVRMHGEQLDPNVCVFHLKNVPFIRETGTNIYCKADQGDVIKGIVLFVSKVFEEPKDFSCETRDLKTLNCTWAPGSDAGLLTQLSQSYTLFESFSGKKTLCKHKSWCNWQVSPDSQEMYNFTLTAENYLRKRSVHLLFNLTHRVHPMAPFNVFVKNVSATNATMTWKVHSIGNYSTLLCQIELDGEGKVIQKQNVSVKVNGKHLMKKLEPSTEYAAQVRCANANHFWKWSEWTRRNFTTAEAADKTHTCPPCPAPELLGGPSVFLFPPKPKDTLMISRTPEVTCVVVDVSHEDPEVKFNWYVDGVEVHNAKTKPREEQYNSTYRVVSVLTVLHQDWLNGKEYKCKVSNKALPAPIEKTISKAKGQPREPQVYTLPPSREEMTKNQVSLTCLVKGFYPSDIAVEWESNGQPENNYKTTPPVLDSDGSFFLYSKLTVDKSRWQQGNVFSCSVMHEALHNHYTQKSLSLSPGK
# assay.info: SPR Biacore
recorded.metric: koff (s⁻¹)
# number only, unit s⁻¹ dropped from output

Below, each entry is followed by its recorded koff result.
Mu_09E09_VH (SEQ ID NO: 35)_Y50A (antibody, V domains shown) VH: DVKLVESGEGLVKPGGSLKLSCAASGFTFSSYAMSWVRQTPEKRLEWVAAISSGGDYIYYADTVKGRFTISRDNARNTLYLQMSSLKSEDTAMYYCTRDPITGTFAYWGQGTLVTVSA VL: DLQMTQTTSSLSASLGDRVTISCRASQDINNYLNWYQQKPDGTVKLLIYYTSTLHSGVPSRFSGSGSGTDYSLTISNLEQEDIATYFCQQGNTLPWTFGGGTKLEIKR : 0.00177
Mu_19F07_VL (SEQ ID NO: 49)_Q90A (antibody, V domains shown) VH: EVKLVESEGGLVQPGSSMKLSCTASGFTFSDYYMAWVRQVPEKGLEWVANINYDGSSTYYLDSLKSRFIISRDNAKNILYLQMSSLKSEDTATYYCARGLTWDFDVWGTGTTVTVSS VL: DIVMTQSHKFMSPSVGDRVSITCKASQDVDTAVAWYQQKPGQSPKLLIYLASTRHTGVPDRFTGSGSGTDFTLTISNVQSEDLADYFCQAYSRFPLTFGAGTKLELKR : 1.31e-07

Please look at the following binder next.
Query Mu_02D09_VL (SEQ ID NO: 33)_L96A (antibody, V domains shown) VH: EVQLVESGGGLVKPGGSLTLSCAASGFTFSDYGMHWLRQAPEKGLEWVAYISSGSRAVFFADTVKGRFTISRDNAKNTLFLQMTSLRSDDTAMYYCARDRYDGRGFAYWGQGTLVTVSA VL: DIVLTQSPATLSVTPGDSVSLSCRASQSISNNLHWYQQTSHESPRLLITYASQSISGIPSRFSGSGSGTDFTLSINSVETEDFGMYFCQQSNSWPATFGAGTKLELKR yields koff of 2.85e-07
